Target: Polyunsaturated fatty acid 5-lipoxygenase (Homo sapiens)
Sequence (P09917 whole entry): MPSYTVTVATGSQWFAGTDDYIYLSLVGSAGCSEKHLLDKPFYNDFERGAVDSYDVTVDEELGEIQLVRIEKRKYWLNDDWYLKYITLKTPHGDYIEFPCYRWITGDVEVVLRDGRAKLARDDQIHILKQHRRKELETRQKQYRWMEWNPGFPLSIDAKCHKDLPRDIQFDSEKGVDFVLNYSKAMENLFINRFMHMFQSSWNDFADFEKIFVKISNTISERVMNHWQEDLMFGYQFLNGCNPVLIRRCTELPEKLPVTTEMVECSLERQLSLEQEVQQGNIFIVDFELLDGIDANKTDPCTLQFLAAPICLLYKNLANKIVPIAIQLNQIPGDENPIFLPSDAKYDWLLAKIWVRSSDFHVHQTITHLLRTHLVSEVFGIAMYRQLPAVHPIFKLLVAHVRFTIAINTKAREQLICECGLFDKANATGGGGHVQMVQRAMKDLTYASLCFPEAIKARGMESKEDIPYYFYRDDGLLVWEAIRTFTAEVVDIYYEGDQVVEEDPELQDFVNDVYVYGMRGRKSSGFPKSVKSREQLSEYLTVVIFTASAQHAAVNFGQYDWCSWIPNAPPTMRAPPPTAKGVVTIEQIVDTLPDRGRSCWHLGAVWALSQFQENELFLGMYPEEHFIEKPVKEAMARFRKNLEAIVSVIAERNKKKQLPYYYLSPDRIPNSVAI
Test: Inhibition of recombinant human 5-LO expressed in Escherichia coli JM109 using arachidonic acid as substrate incubated for 10 mins by HPLC analysis
measurement_kind: IC50

Record for CC1(C)Cc2c(-c3ccccc3)c(-c3ccc(Cl)cc3)c(CC(=O)O)n2C1 under target or system Polyunsaturated fatty acid 5-lipoxygenase (Homo sapiens): IC50 reported as > 10 µM

----------
Target: Arachidonate 5-lipoxygenase-activating protein (Homo sapiens)
Sequence (P20292 whole entry): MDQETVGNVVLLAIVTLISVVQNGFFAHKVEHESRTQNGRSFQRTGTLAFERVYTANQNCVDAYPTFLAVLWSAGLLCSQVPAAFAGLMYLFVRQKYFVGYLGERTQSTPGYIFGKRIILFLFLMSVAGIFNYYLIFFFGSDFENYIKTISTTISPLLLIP
Assay: Inhibition of FLAP in human PMNL cells assessed as reduction in all-trans isomers of LTB4 and 5-HETE formation preincubated with enzyme for 15 mins followed by Ca2+ ionophore-A23187 and measured after 10 mins by HPLC analysis
Assay type: cell-based
measurement_kind: pIC50
Hey, just a heads up that pIC50 is the negative log base 10 of the concentration in molar.

For record O=C(O)c1noc(-c2ccc(OCc3ccc4ccccc4n3)cc2)c1-c1ccc(Cl)cc1 the listed pIC50 is 8.15
